// data source = paper PMC9289130

Assay: Pharmacokinetic study in control and DSS-induced UC rats after oral administration of LXF (serum, UPLC-MS/MS)
Assay type: in vivo, Sprague-Dawley (SD) rats
Settings: male, Sprague-Dawley, rat, serum, po, 3.3 g/kg, control group; oral LXF 3.30 g/kg; rat serum; n = 8; mean ± SD
QUANTITY NAME: AUC(0-inf) (ng·h/mL)

molecule="C=C1CC[C@@H]2[C@](C)(CO)[C@H](O)CC[C@@]2(C)[C@H]1C/C=C1\\C=COC1=O [dehydroandrographolide]" quantity_name=AUC(0-inf) data_value=2360
molecule="C=C1CC[C@@H]2[C@](C)(CO)[C@H](O)CC[C@@]2(C)[C@@H]1C/C=C1/C(=O)OC[C@H]1O [andrographolide]" quantity_name=AUC(0-inf) data_value=7120
molecule="COC(=O)c1nccc2c1[nH]c1ccccc12 [1-methoxicabony-β-carboline]" quantity_name=AUC(0-inf) data_value=219
molecule="COc1c(O)c(=O)n2c3ccccc3c3ccnc1c32 [4-methoxy-5-hydroxy-canthin-6-one]" quantity_name=AUC(0-inf) data_value=595
